# IC50 per entry
Target: M. smegmatis F-ATP synthase (Mycolicibacterium smegmatis, UniProt A0R1Z9+A0R205)
Assay: biochemical
Numeric answer only, unit nM assumed.

Query block: Looking for the measured IC50 of COc1cc([C@](O)(CCN(C)C)[C@H](c2cc(OC(C)C)cnc2OC)c2cc3cc(Br)ccc3nc2OC)cc(OC)n1 [compound 5366] , can you help?
Result block: 0.0164

Query block: Looking for the measured IC50 of COc1nc2ccc(Br)cc2cc1[C@@H](c1ccccc1)[C@@](O)(CCN(C)C)c1cccc2ccccc12 [BDQ, Bedaquiline, reference compound] , can you help?
Result block: 0.2

Query block: Looking for the measured IC50 of COc1cc([C@](O)(CCN(C)C)[C@@H](c2cc3cc(Br)ccc3nc2OC)c2cc(OC)nc(OC)c2OC)cc(OC)n1 [TBAJ-876] , can you help?
Result block: 0.0059

Query block: Looking for the measured IC50 of COc1cc([C@](O)(CCN(C)C)[C@@H](c2cc3cc(Br)ccc3nc2OC)c2cccc3c2OCCO3)cc(OC)n1 [compound 5316] , can you help?
Result block: 0.011

Query block: Looking for the measured IC50 of COc1cc([C@](O)(CCN(C)C)[C@@H](c2cc3cc(Br)ccc3nc2OC)c2ccnc(OC)c2OC)cc(OC)n1 [compound 5307] , can you help?
Result block: 0.0087

----------
# pIC50 per entry
Biological target: mycobacterial F-ATP synthase (Mycobacterium bovis, UniProt A1KI93+A1KI99)
Sequence (A1KI93 whole entry, looked up): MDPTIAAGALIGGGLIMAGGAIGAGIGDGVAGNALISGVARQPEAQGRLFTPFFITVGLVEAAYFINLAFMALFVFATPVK
Sequence (A1KI99 whole entry, looked up): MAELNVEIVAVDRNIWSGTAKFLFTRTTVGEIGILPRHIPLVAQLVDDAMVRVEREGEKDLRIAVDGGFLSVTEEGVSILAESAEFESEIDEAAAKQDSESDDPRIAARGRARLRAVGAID
Assay: biochemical
The meaning of pIC50 here: minus log10 of the concentration in molar units.

Previously resolved entries follow.
# compound, pIC50
data = [
    ("COc1cc([C@](O)(CCN(C)C)[C@@H](c2cc3cc(Br)ccc3nc2OC)c2cc(OC)nc(OC)c2OC)cc(OC)n1 [TBAJ-876]", 10.51),
    ("COc1nc2ccc(Br)cc2cc1[C@@H](c1ccccc1)[C@@](O)(CCN(C)C)c1cccc2ccccc12 [BDQ, Bedaquiline, reference compound]", 8.28),
    ("COc1cc([C@](O)(CCN(C)C)[C@@H](c2cc3cc(Br)ccc3nc2OC)c2cccc3c2OCCO3)cc(OC)n1 [compound 5316]", 10.33),
    ("COc1cc([C@](O)(CCN(C)C)[C@@H](c2cc3cc(Br)ccc3nc2OC)c2ccnc(OC)c2OC)cc(OC)n1 [compound 5307]", 10.04),
]

Query block: Looking for the measured pIC50 of COc1cc([C@](O)(CCN(C)C)[C@H](c2cc(OC(C)C)cnc2OC)c2cc3cc(Br)ccc3nc2OC)cc(OC)n1 [compound 5366] , can you help?
Result block: 9.70

----------
Tested on: M. bovis BCG
Test: microbe, parasite or virus in culture
Format: cell-based
Settings: Mycobacterium tuberculosis variant bovis BCG, 24 h, read-out: IC50 ATP depletion (intrabacterial ATP)
# log10 IC50 per entry
Use the decimal logarithm of IC50 (nM).

# compound, log10 IC50
measured = [
    ("COc1cc([C@](O)(CCN(C)C)[C@@H](c2cc3cc(Br)ccc3nc2OC)c2cc(OC)nc(OC)c2OC)cc(OC)n1 [TBAJ-876]", -0.05),
    ("COc1cc([C@](O)(CCN(C)C)[C@H](c2cc(OC(C)C)cnc2OC)c2cc3cc(Br)ccc3nc2OC)cc(OC)n1 [compound 5366]", -0.49),
    ("COc1cc([C@](O)(CCN(C)C)[C@@H](c2cc3cc(Br)ccc3nc2OC)c2ccnc(OC)c2OC)cc(OC)n1 [compound 5307]", -0.32),
]

Query block: Looking for the measured log10 IC50 of COc1nc2ccc(Br)cc2cc1[C@@H](c1ccccc1)[C@@](O)(CCN(C)C)c1cccc2ccccc12 [BDQ, Bedaquiline, reference compound] , can you help?
Result block: 0.96

Query block: Looking for the measured log10 IC50 of COc1cc([C@](O)(CCN(C)C)[C@@H](c2cc3cc(Br)ccc3nc2OC)c2cccc3c2OCCO3)cc(OC)n1 [compound 5316] , can you help?
Result block: -0.47

----------
System: M. tuberculosis H37Rv
Experiment: microbe, parasite or virus in culture
Assay type: cell-based
Settings: Mycobacterium tuberculosis, 168 h, read-out: M. tuberculosis H37Rv MIC90
attribute_measured: MIC90 (µM)
Numeric answer only, unit µM assumed.

Previously resolved entries follow.
# compound, unit, MIC90
data = [
    ("COc1cc([C@](O)(CCN(C)C)[C@@H](c2cc3cc(Br)ccc3nc2OC)c2cc(OC)nc(OC)c2OC)cc(OC)n1 [TBAJ-876]", "µM", 0.125),
    ("COc1cc([C@](O)(CCN(C)C)[C@@H](c2cc3cc(Br)ccc3nc2OC)c2cccc3c2OCCO3)cc(OC)n1 [compound 5316]", "µM", 0.07),
    ("COc1cc([C@](O)(CCN(C)C)[C@H](c2cc(OC(C)C)cnc2OC)c2cc3cc(Br)ccc3nc2OC)cc(OC)n1 [compound 5366]", "µM", 0.03),
    ("COc1nc2ccc(Br)cc2cc1[C@@H](c1ccccc1)[C@@](O)(CCN(C)C)c1cccc2ccccc12 [BDQ, Bedaquiline, reference compound]", "µM", 0.4),
]

Attention now shifts to the item below.
Query block: Looking for the measured MIC90 of COc1cc([C@](O)(CCN(C)C)[C@@H](c2cc3cc(Br)ccc3nc2OC)c2ccnc(OC)c2OC)cc(OC)n1 [compound 5307] , can you help?
Result block: 0.07

----------
# MIC90 per entry
System: M. bovis BCG
Experiment: microbe, parasite or virus in culture
Type: cell-based
Details: Mycobacterium tuberculosis variant bovis BCG, 120 h, read-out: Growth inhibition MIC90
Remember to quote the unit after the number.

Previously resolved entries follow.
# compound, val
records = [
    ("COc1nc2ccc(Br)cc2cc1[C@@H](c1ccccc1)[C@@](O)(CCN(C)C)c1cccc2ccccc12 [BDQ, Bedaquiline, reference compound]", "70 nM"),
    ("COc1cc([C@](O)(CCN(C)C)[C@@H](c2cc3cc(Br)ccc3nc2OC)c2cc(OC)nc(OC)c2OC)cc(OC)n1", "7.2 nM"),
    ("COc1cc([C@](O)(CCN(C)C)[C@@H](c2cc3cc(Br)ccc3nc2OC)c2cccc3c2OCCO3)cc(OC)n1", "3.6 nM"),
    ("COc1cc([C@](O)(CCN(C)C)[C@@H](c2cc3cc(Br)ccc3nc2OC)c2ccnc(OC)c2OC)cc(OC)n1", "3.6 nM"),
]

Attention now shifts to the item below.
Query block: Looking for the measured MIC90 of `COc1cc([C@](O)(CCN(C)C)[C@H](c2cc(OC(C)C)cnc2OC)c2cc3cc(Br)ccc3nc2OC)cc(OC)n1` , can you help?
Result block: 3.4 nM
